SYSTEM NAME: T1, human interleukin-1 receptor on cells (MRC-5 human embryonic lung fibroblasts; human blood cells) (human, UniProt P14778 18-569)
T1 sequence (looked up): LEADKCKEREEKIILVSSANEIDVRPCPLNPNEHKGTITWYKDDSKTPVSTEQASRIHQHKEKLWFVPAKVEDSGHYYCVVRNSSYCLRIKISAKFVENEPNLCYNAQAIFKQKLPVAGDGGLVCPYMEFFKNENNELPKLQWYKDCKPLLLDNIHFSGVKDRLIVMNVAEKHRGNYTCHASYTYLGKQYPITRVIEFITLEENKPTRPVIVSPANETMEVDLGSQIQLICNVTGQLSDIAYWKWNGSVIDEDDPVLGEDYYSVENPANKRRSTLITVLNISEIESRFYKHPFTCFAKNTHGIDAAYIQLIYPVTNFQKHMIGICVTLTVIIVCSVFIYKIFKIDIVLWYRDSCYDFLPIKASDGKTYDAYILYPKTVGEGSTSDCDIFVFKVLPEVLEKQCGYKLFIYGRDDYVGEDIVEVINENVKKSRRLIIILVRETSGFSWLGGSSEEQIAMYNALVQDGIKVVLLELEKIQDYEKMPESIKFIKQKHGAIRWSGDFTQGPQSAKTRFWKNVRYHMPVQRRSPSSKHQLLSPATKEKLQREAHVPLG
PROTOCOL NOTES: cell-based or functional assay
OUTCOME MEASURE: Bioassay (IC50 in relation to 2D8), 1st experiment

binder="DEI5/9 (antibody, V domains shown) VH: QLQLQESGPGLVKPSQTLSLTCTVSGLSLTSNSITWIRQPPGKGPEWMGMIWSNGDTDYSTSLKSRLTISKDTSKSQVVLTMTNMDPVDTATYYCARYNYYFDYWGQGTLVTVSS VL: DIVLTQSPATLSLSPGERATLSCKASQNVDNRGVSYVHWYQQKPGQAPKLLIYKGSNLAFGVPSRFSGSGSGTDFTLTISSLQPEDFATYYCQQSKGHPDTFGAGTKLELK" reported_result="1.6 relative to 2D8"
binder="DEI5/8 (antibody, human IgG4, kappa, V domains shown, also called combination of HURDIVHv5 and HURDIVKv8) VH: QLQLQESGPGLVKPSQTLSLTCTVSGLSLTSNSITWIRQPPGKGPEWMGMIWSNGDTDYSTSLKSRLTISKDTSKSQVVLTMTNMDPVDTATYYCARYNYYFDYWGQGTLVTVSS VL: DIVLTQSPATLSLSPGERATLSCKASQNVDNRGVSYVHWYQQKPGQAPKLLIYKGSNLAFGVPSRFSGSGSGTDFTLTISSLQPEDFATYFCQQSKGHPDTFGAGTKLELKR" reported_result="1.7 relative to 2D8"

# next binder below
Inquiry: Form field: reported Bioassay (IC50 in relation to 2D8), 1st experiment of DEI5/4 (antibody, V domains shown) VH: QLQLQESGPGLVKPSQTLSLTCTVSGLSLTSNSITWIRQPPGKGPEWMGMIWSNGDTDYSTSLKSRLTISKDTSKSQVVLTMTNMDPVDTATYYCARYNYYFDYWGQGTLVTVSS VL: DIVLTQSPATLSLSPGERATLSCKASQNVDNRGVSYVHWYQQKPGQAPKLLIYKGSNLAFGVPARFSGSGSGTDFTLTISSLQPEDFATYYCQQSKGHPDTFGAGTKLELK
Reply text: 3.1 relative to 2D8
